- Test Description: Antioxidant activity assessed as DPPH radical scavenging activity measured as discoloration incubated for 30 mins in dark relative to control
- Assay type: physicochemical
- Reported Conditions: 0.5 h
Reported Endpoint: inhibition (INH) (%)
Reply with just the number (in %).

Field: example entries. Status: answers known.
Cc1cc(C(C)(C)C)c(O)c(C(C)(C)C)c1 [BUTYLATED HYDROXYTOLUENE] :: 54.8
CCOc1cc(/C=N/NC(=O)c2ccc(OCc3cc(OC)c(OC)c(OC)c3)cc2)ccc1O :: 53.3
O=C1O[C@H]([C@@H](O)CO)C(O)=C1O [ASCORBIC ACID] :: 90.6

Entry under review: COc1cc(/C=N/NC(=O)c2ccc(OCc3cc(OC)c(OC)c(OC)c3)cc2)cc(OC)c1O . Reported inhibition (INH)?
57.9

----------
Listed molecules paired with reported log10 Activity
- Test Description: Antioxidant activity assessed as ferric ion reducing activity using fe3+-TPTZ assessed as fe2+-TPTZ formation after 30 mins by FRAP assay
- Type: physicochemical
- Reported Conditions: 0.5 h
Recall that a logarithmic scale is used here: each number is log10 of Activity in µM.

Field: example entries. Status: answers known.
COc1cc(COc2ccc(C(=O)N/N=C/c3ccccc3O)cc2)cc(OC)c1OC :: 1.41
COc1cc(COc2ccc(C(=O)N/N=C/c3cccc(O)c3)cc2)cc(OC)c1OC :: 3.26
COc1cc(COc2ccc(C(=O)NN)cc2)cc(OC)c1OC :: 3.55
Cc1cc(C(C)(C)C)c(O)c(C(C)(C)C)c1 [BUTYLATED HYDROXYTOLUENE] :: 3.45
COc1cc(/C=N/NC(=O)c2ccc(OCc3cc(OC)c(OC)c(OC)c3)cc2)cc(OC)c1OC :: 3.14
CCOc1cc(/C=N/NC(=O)c2ccc(OCc3cc(OC)c(OC)c(OC)c3)cc2)ccc1O :: 3.27
COc1cc(/C=N/NC(=O)c2ccc(OCc3cc(OC)c(OC)c(OC)c3)cc2)cc(OC)c1O :: 3.32
COc1cc(COc2ccc(C(=O)N/N=C/c3ccc(OC)c(OC)c3OC)cc2)cc(OC)c1OC :: 3.21
COc1cc(COc2ccc(C(=O)N/N=C/c3cc(C(C)(C)C)c(O)c(C(C)(C)C)c3)cc2)cc(OC)c1OC :: 3.04
CCOC(=O)c1ccc(OCc2cc(OC)c(OC)c(OC)c2)cc1 :: 1.43

Entry under review: COc1cc(COc2ccc(C(=O)N/N=C/c3ccc(O)cc3)cc2)cc(OC)c1OC . Reported log10 Activity?
3.49

Entry under review: COc1cc(COc2ccc(C(=O)N/N=C/c3cc(Br)cc(Cl)c3O)cc2)cc(OC)c1OC . Reported log10 Activity?
2.10

Entry under review: O=C1O[C@H]([C@@H](O)CO)C(O)=C1O [ASCORBIC ACID] . Reported log10 Activity?
3.41

----------
Listed compounds paired with reported inhibition (INH)
- Test Description: Antioxidant activity assessed as DPPH radical scavenging activity measured as discoloration incubated for 30 mins in dark relative to control
- Format: physicochemical
- Reported Conditions: 0.5 h
Reply with just the number (in %).

COc1cc(COc2ccc(C(=O)N/N=C/c3ccccc3O)cc2)cc(OC)c1OC :: 9.6
COc1cc(COc2ccc(C(=O)N/N=C/c3ccc(O)cc3)cc2)cc(OC)c1OC :: 18.7
COc1cc(COc2ccc(C(=O)N/N=C/c3ccc(OC)c(OC)c3OC)cc2)cc(OC)c1OC :: 10.4

Entry under review: COc1cc(COc2ccc(C(=O)NN)cc2)cc(OC)c1OC . Reported inhibition (INH)?
37.2

Entry under review: COc1cc(COc2ccc(C(=O)N/N=C/c3cc(Br)cc(Cl)c3O)cc2)cc(OC)c1OC . Reported inhibition (INH)?
15.6

Entry under review: COc1cc(/C=N/NC(=O)c2ccc(OCc3cc(OC)c(OC)c(OC)c3)cc2)cc(OC)c1OC . Reported inhibition (INH)?
10.4

Entry under review: COc1cc(COc2ccc(C(=O)N/N=C/c3cccc(O)c3)cc2)cc(OC)c1OC . Reported inhibition (INH)?
9.3

Entry under review: COc1cc(COc2ccc(C(=O)N/N=C/c3cc(C(C)(C)C)c(O)c(C(C)(C)C)c3)cc2)cc(OC)c1OC . Reported inhibition (INH)?
75.3

Entry under review: CCOC(=O)c1ccc(OCc2cc(OC)c(OC)c(OC)c2)cc1 . Reported inhibition (INH)?
10.8
